- System Name: Epidermal growth factor receptor (Homo sapiens)
- Assay Method Text: EGFR binders on small-molecule microarrays, primary screen, biochemical, small-molecule microarray, 635 nm fluorescence (AID 1104);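 also: score merges 667 nm emission intensity with spot signal to noise over triplicate slides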
- Test Settings: EGFR binding, higher = more signal
Hi there, I'd appreciate the recorded composite z-score for every entry that follows.
Kindly provide the number alone.

response.value for CC1=C([C@H](O)CCc2ccccc2)[C@H](CO)[C@@H]2C(=O)N(Cc3ccccc3)C(=O)[C@@H]2C1 (field: composite z-score) = -0.176

response.value for CCC1=C2CN(Cc3ccccc3Br)[C@@H]([C@@H](O)Cc3ccccc3)C2C=CCC1 (some centres undefined) (field: composite z-score) = 0.164

response.value for C=C(CCCC)C(=O)CC[C@@H](OC(C)=O)c1ccccc1OCCO (field: composite z-score) = -1.36

response.value for COc1ccc([Si](C)(C)[C@@H]2[C@@H](CCO)O[C@]3(C(=O)N(Cc4ccccc4)c4ccccc43)[C@H]2C)cc1 (field: composite z-score) = 0.187
